Test system: PC3-PIP (PSMA+) and PC3-flu (PSMA−) xenografts
EXPERIMENT NOTES: In vivo optical (NIR) imaging of labeled NBs
Parameters: species or system athymic nude mice
MEASUREMENT CONDITIONS: whole-body NIR imaging, 1.5 nmole AlexaFluor680-labeled NB i.v.
Experimental: Tumor xenografts were generated in 6-week old male athymic nude mice by using PC3-PIP and PC3-flu cells. […] The mice were anesthetized with isoflurane at different time points (see below) and the distribution of the fluorescently labeled protein was measured in near infra-red (NIR) optical imaging using the IVIS Lumina system (PerkinElmer, USA). […] The fluorescence signal was measured at the time of injection, and 0.5, 1, 2, 3, 6, 10, 18, 24, 28, 32, 36, 48 and 56 h after injection. […]
QUANTITY MEASURED: duration until the fluorescent signal was no longer detected (late time point) (h)

MOLECULE	RELATION SIGN	REPORTED VALUE
NB7: anti-PSMA camel nanobody (VHH, ~16 kDa) selected by phage display; PDB 6XXN (protein) VHH: QVQLQESGGGSVQAGGSLRLSCTAPGYTDSNYYMSWFRQAPGKEREWVAGVNTGRGSTSYADSVKGRFTISQDNAKNTMFLQMNSLKPEDTAIYYCAVAACHFCDSLPKTQDEYILWGQGTQVTVSSAAAYPYDVPDYGS	>	56
NB13: anti-PSMA camel nanobody (VHH, ~16 kDa) selected by phage display (protein) VHH: QVQLQESGGGSVQTGGSLRLSCAASGYTASFSWIGYFRQAPGKEREGVAVINVGVGSTYYADSVKGRFTISRDNTENTISLEMNSLKPEDTGLYYCAGSLRWSRPPNPISEDAYNYWGQGTQVTVSSAAAYPYDVPDYGS	=	32
NB37: anti-PSMA camel nanobody (VHH, ~16 kDa) selected by phage display; PDB 6XXP (protein) VHH: QVQLQESGGGSVEAGGSLRLSCARSGWPYSTYSMNWFRQAPGKEREAVAGISSTMSGIIFAESKAGQFTISQDNAKNTVYLQMNNLKPEDTAIYYCAARRDYSLSSSSDDFDYWGQGTQVTVSSAAAYPYDVPDYGS	=	24
NB8: anti-PSMA camel nanobody (VHH, ~16 kDa) selected by phage display; PDB 6XXO (protein) VHH: QVQLQESGGGSVQAGGSLRLSCARSGWPYSTYSMNWFRQAPGKEREAVAGISSTMSGIIFAESKAGQFTISQDNAKNTVYLQMNNLKPEDTAIYYCAARRDYSLSSSSDDFDYWGQGTQVTVSSAAAYPYDVPDYGS	=	32
